- SYSTEM_TESTED: Carbonic anhydrase 1 (Homo sapiens)
- Sequence (P00915 whole entry): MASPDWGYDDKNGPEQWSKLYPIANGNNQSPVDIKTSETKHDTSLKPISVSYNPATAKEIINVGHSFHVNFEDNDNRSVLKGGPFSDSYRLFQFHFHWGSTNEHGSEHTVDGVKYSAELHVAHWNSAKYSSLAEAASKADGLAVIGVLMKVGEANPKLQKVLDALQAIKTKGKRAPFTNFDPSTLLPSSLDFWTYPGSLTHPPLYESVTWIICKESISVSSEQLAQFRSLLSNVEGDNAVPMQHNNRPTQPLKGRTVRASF
- EXPERIMENT: Inhibition of human recombinant carbonic anhydrase 1 assessed as CO2 hydration preincubated for 15 mins prior to testing measured for 10 to 100 secs by phenol red dye-based stopped-flow assay
pKi: −log10 of the molar value.
PROPERTY: pKi

Check out these entries, answers already filled in.
MOL_SMILES	pKi
NS(=O)(=O)c1ccc(N/N=C/c2ccc(N3CCN(c4ccccc4)CC3)cc2)cc1	5.10
NS(=O)(=O)c1ccc(N/N=C/c2ccc(N3CCN(C(=O)c4ccco4)CC3)cc2)cc1	6.49
NS(=O)(=O)c1ccc(C(=O)N/N=C/c2ccc(N3CCN(C(=O)OCc4ccccc4)CC3)cc2)cc1	5.02
NS(=O)(=O)c1ccc(C(=O)N/N=C/c2ccc(N3CCN(C(=O)c4ccco4)CC3)cc2)cc1	5.02
NS(=O)(=O)c1ccc(C(=O)N/N=C/c2ccc(N3CCN(Cc4ccccc4)CC3)cc2)cc1	5.15
NS(=O)(=O)c1ccc(N/N=C/c2ccc(N3CCN(C(=O)OCc4ccccc4)CC3)cc2)cc1	6.04
NS(=O)(=O)c1ccc(C(=O)N/N=C/c2ccc(N3CCN(C(=O)c4ccccc4)CC3)cc2)cc1	5.26
NS(=O)(=O)c1ccc(C(=O)N/N=C/c2ccc(N3CCN(c4ccc(C(F)(F)F)cc4)CC3)cc2)cc1	5.09

(1) Cc1ccc(N2CCN(c3ccc(/C=N/Nc4ccc(S(N)(=O)=O)cc4)cc3)CC2)c(C)c1
(2) NS(=O)(=O)c1ccc(C(=O)N/N=C/c2ccc(N3CCN(Cc4ccc5c(c4)OCO5)CC3)cc2)cc1
API: POST /compare with 1 and 2 ; response names the item with higher pKi. Please reply using the label of the selected record.
1
(1: 5.39, 2: 5.08)

(1) NS(=O)(=O)c1ccc(N/N=C/c2ccc(N3CCN(c4ccc(C(F)(F)F)cc4)CC3)cc2)cc1
(2) NS(=O)(=O)c1ccc(C(=O)N/N=C/c2ccc(N3CCN(c4ncccn4)CC3)cc2)cc1
Which record shows the lower pKi: the first, 1 , or the second, 2 ? Please reply using the label of the selected record.
1
(1: 5.02, 2: 5.69)

(P) NS(=O)(=O)c1ccc(N/N=C/c2ccc(N3CCN(c4ccc(F)cc4)CC3)cc2)cc1
(Q) NS(=O)(=O)c1ccc(C(=O)N/N=C/c2ccc(N3CCN(c4ccc(F)cc4)CC3)cc2)cc1
API: POST /compare with P and Q ; response names the item with higher pKi. Please reply using the label of the selected record.
P
(P: 5.62, Q: 5.24)
